STUDY_TARGET: KRAS (G12D)::SOS1 (Homo sapiens (Human), UniProt P01116, G12D)
Sequence (P01116 other isoform, or with tags, fused parts or gaps G12D): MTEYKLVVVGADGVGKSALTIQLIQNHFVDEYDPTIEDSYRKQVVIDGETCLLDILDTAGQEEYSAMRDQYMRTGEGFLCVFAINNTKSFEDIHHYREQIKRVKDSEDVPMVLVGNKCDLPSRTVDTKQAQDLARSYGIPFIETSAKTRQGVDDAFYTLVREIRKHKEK
METHOD_DESCRIPTION: KRAS::SOS1 AlphaScreen binding assay, KRAS G12D
Recorded measurements of IC50, one per entry
Record the value in nM, omitting the unit from your answer.

Worked examples follow.
{"MOLECULE": "C[C@H](Oc1cc(-n2ccc(C(=O)N[C@H]3CCOC3)n2)nc(-c2noc3c2CCC[C@@]32CCCc3sc(N)c(C#N)c32)n1)[C@@H]1CCCN1C [II-193]", "VALUE_UNITS": "nM", "IC50": 1}
{"MOLECULE": "C[C@H](Oc1cc(-c2cc[nH]n2)nc(-c2noc3c2CCC[C@@]32CCCc3sc(N)c(C#N)c32)n1)[C@@H]1CCCN1C [II-71]", "VALUE_UNITS": "nM", "IC50": 2}
{"MOLECULE": "CO[C@@H]1C[C@@H]([C@H](C)Oc2cc(N3CCN(C)C4(COC4)C3)nc(-c3noc4c3CCC[C@@]43CCCc4sc(N)c(C#N)c43)n2)N(C)C1 [II-153]", "VALUE_UNITS": "nM", "IC50": 2}
{"MOLECULE": "C[C@H](Oc1cc(N2CC3COCC(C2)N3)nc(-c2noc3c2CCC[C@@]32CCCc3sc(N)c(C#N)c32)n1)[C@@H]1CCCN1C [II-160]", "VALUE_UNITS": "nM", "IC50": 2}
{"MOLECULE": "Cc1nc(-c2cc(O[C@@H](C)[C@@H]3CCCN3C)nc(-c3onc4c3CCC[C@@]43CCCc4sc(N)c(C#N)c43)n2)cs1 [I-24]", "VALUE_UNITS": "nM", "IC50": 2}
{"MOLECULE": "C[C@H](Oc1cc(-n2ccncc2=O)nc(-c2noc3c2CCC[C@@]32CCCc3sc(N)c(C#N)c32)n1)[C@@H]1CCCN1C [II-116]", "VALUE_UNITS": "nM", "IC50": 2}
{"MOLECULE": "C[C@H](Oc1cc(N2C[C@H](C)N[C@@H](C)C2)nc(-c2noc3c2CCC[C@@]32CCCc3sc(N)c(C#N)c32)n1)[C@@H]1CCCN1C [II-56]", "VALUE_UNITS": "nM", "IC50": 1}
{"MOLECULE": "Cc1nccn1-c1cc(O[C@@H](C)[C@@H]2CCCN2C)nc(-c2noc3c2CCC[C@@]32CCCc3sc(N)c(C#N)c32)n1 [II-79]", "VALUE_UNITS": "nM", "IC50": 2}

Check the records and state IC50 for C[C@H](Oc1cc(N2CCC(C#N)C2)nc(-c2noc3c2CCC[C@@]32CCCc3sc(N)c(C#N)c32)n1)[C@@H]1CCCN1C (stereo partly shown) [II-99]
4

Output IC50 of CCN1CCN(c2cc(O[C@@H](C)[C@@H]3C[C@@H](F)CN3C)nc(-c3noc4c3CCC[C@@]43CCCc4sc(N)c(C#N)c43)n2)CC12CC2 [II-185]
1

Give me measured IC50, please, for this molecule: C[C@H](Oc1cc(-c2ccn(C)n2)nc(-c2onc3c2CCC[C@@]32CCCc3sc(N)c(C#N)c32)n1)[C@@H]1CCCN1C [I-21]
4

Entry C[C@H](Oc1cc(-n2cc3c(n2)CCNC3)nc(-c2noc3c2CCC[C@@]32CCCc3sc(N)c(C#N)c32)n1)[C@@H]1CCCN1C [II-53] needs its IC50 filled in; supply it.
1

Please give measured IC50 of the following entry: C[C@H](Oc1cc(-c2ccn(C)n2)nc(-c2noc3c2CCC[C@@]32CCCc3sc(N)c(C#N)c32)n1)[C@@H]1C[C@@H](F)CN1C [II-27]
8
